Origin of the recorded values: the supplement of paper PMC10567573

Entries and their measured protein stability index follow.
B1: TMEM106C (parent)
chain: TVPEILVHNIVIFMRTSVKISYIG

variants of: B1; experiment: protein stability index of a GFP-peptide fusion (GPS, HEK-293T) (PSI 1-6); higher = more stable; conditions: c terminus: a fixed tail appended;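 note: lentivirally expressed fusions sorted by FACS into six bins by GFP to DsRed ratio, PSI derived from sequencing read proportions per bin multiplied by bin number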

Variant Designation: I10D
protein stability index: 2.47
--
Variant Designation: I23G
protein stability index: 2.88
--
Variant Designation: E4H
protein stability index: 2.29
--
Variant Designation: M14I
protein stability index: 2.85
--
Variant Designation: S21G
protein stability index: 1.99
--
Variant Designation: S17Y
protein stability index: 3
--
Variant Designation: G24D
protein stability index: 2.27
--
Variant Designation: N9T
protein stability index: 2.49
--
Variant Designation: F13S
protein stability index: 2.83
--
Variant Designation: M14H
protein stability index: 2.91
--
Variant Designation: I20W
protein stability index: 2.88
--
Variant Designation: I20V
protein stability index: 1.4
--
Variant Designation: T1D
protein stability index: 1.51
--
Variant Designation: Y22P
protein stability index: 3
--
Variant Designation: V11W
protein stability index: 2.85
--
Variant Designation: N9W
protein stability index: 3.74
--
Variant Designation: L6Q
protein stability index: 2.44
--
Variant Designation: T16Q
protein stability index: 2.46
--
Variant Designation: L6F
protein stability index: 2.25
--
Variant Designation: R15T
protein stability index: 2.69
--
Variant Designation: I12P
protein stability index: 2.19
--
Variant Designation: K19H
protein stability index: 2.62
--
Variant Designation: E4F
protein stability index: 2.67
--
Variant Designation: E4T
protein stability index: 2.5
--
Variant Designation: I10H
protein stability index: 3.4
--
Variant Designation: V18A
protein stability index: 4.48
--
Variant Designation: L6S
protein stability index: 2.77
--
Variant Designation: T16W
protein stability index: 2.85
--
Variant Designation: I5E
protein stability index: 4.16
--
Variant Designation: Y22L
protein stability index: 2.73
--
Variant Designation: R15F
protein stability index: 3.57
--
Variant Designation: I12V
protein stability index: 2.64
--
Variant Designation: N9D
protein stability index: 3.55
--
Variant Designation: K19L
protein stability index: 3.2
--
Variant Designation: I23K
protein stability index: 4.25
--
Variant Designation: H8S
protein stability index: 3.74
--
Variant Designation: S17I
protein stability index: 2.2
--
Variant Designation: G24W
protein stability index: 2.75
--
Variant Designation: T1M
protein stability index: 3.02
--
Variant Designation: H8L
protein stability index: 3.28
--
Variant Designation: H8N
protein stability index: 3.21
--
Variant Designation: V18H
protein stability index: 2.13
--
Variant Designation: E4I
protein stability index: 2.02
--
Variant Designation: M14G
protein stability index: 3.13
--
Variant Designation: K19M
protein stability index: 1.77
--
Variant Designation: H8R
protein stability index: 2.67
--
Variant Designation: Y22V
protein stability index: 4.14
--
Variant Designation: V11E
protein stability index: 3.64
--
Variant Designation: E4M
protein stability index: 4.55
--
Variant Designation: T16D
protein stability index: 2.97
--
Variant Designation: V7Y
protein stability index: 3.26
--
Variant Designation: Y22T
protein stability index: 2.84
--
Variant Designation: V18K
protein stability index: 2.77
--
Variant Designation: M14F
protein stability index: 2.97
--
Variant Designation: S21T
protein stability index: 3.42
--
Variant Designation: V7S
protein stability index: 2.37
--
Variant Designation: V7E
protein stability index: 4.49
--
Variant Designation: L6V
protein stability index: 4.06
--
Variant Designation: E4L
protein stability index: 3.55
--
Variant Designation: S17R
protein stability index: 3.66
--
Variant Designation: I10W
protein stability index: 3.61
--
Variant Designation: I12S
protein stability index: 2.88
--
Variant Designation: L6I
protein stability index: 2.59
--
Variant Designation: V7R
protein stability index: 2.44
--
Variant Designation: K19Y
protein stability index: 3.12
--
Variant Designation: F13V
protein stability index: 3.33
--
Variant Designation: R15H
protein stability index: 2.94
--
Variant Designation: N9C
protein stability index: 2.85
--
Variant Designation: F13C
protein stability index: 3.25
--
Variant Designation: K19A
protein stability index: 3.17
--
Variant Designation: M14R
protein stability index: 2.21
--
Variant Designation: G24N
protein stability index: 3.8
--
Variant Designation: V11A
protein stability index: 4.26
--
Variant Designation: S17C
protein stability index: 3.88
--
Variant Designation: I10F
protein stability index: 3.5
--
Variant Designation: V7Q
protein stability index: 3.02
--
Variant Designation: H8Q
protein stability index: 2.63
--
Variant Designation: S21I
protein stability index: 3.51
--
Variant Designation: H8G
protein stability index: 2.27
--
Variant Designation: S21M
protein stability index: 3.51
--
Variant Designation: N9P
protein stability index: 3.7
--
Variant Designation: S17H
protein stability index: 2.76
--
Variant Designation: S17E
protein stability index: 3.3
--
Variant Designation: E4D
protein stability index: 3.56
--
Variant Designation: T16L
protein stability index: 3.11
--
Variant Designation: I20N
protein stability index: 1
--
Variant Designation: E4V
protein stability index: 3.21
--
Variant Designation: N9Y
protein stability index: 2.44
--
Variant Designation: E4Q
protein stability index: 2.61
--
Variant Designation: F13Y
protein stability index: 3.23
--
Variant Designation: P3I
protein stability index: 1.79
